biological target: GSK3α (Homo sapiens); experiment: biochemical
Sequence (P49840 whole entry): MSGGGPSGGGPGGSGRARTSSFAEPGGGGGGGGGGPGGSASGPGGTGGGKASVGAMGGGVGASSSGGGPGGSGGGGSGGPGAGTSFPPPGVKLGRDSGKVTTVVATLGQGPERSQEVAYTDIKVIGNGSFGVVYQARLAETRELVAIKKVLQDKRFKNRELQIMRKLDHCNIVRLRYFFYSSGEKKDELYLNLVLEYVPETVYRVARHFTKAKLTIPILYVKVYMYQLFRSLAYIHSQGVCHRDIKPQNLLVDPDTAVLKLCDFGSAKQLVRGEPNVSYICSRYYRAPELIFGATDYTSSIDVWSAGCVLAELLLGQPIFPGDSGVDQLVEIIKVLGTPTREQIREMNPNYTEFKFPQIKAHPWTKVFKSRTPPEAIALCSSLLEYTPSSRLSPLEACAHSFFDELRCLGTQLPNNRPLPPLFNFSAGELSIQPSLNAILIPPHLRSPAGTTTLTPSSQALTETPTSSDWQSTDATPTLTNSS
reported_endpoint: pIC50
Answers are plain numbers, as −log10 of the molar value.

INSERT INTO assay_data (molecule, measurement_target, experimental_result) VALUES
  ('CCC1(c2ccccc2)C2=C(CC3(COC3)CC2=O)Nc2n[nH]cc21 (racemic)', 'GSK3α (Homo sapiens)', 5.91);

Let us move to another entry and its pIC50.
Could you share which pIC50 value was measured for CC[C@@]1(c2ccccc2)C2=C(CC3(COC3)CC2=O)Nc2n[nH]cc21 (stereo in doubt) ?
5.94

* * *

For each entry below, report its IC50 value.
molecular target: GSK3β (Homo sapiens, UniProt P49841); test: biochemical
Sequence (P49841 whole entry): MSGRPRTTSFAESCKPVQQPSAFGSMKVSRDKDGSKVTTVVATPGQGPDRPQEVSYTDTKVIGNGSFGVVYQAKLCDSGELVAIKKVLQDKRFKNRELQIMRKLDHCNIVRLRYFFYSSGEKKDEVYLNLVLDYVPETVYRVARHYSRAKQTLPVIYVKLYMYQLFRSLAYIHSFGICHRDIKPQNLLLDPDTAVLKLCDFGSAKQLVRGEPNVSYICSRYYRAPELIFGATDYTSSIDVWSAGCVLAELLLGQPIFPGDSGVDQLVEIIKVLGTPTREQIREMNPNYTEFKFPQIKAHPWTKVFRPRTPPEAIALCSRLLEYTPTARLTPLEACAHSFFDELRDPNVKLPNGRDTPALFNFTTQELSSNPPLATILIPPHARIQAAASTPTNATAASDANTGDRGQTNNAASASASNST

Look over these answered cases.
INSERT INTO measurements (compound, reported_endpoint, experimental_result) VALUES
  ('CC[C@]1(c2cc(F)cc(F)c2)C2=C(CC(C)(C)CC2=O)Nc2n[nH]cc21 (stereo in doubt) [Compound 217]', 'IC50', '> 33 µM'),
  ('CC1(C)CC(=O)C2=C(C1)Nc1n[nH]c(C(F)(F)F)c1C2(C)c1ccccc1F (stereo not shown) [Compound 69]', 'IC50', '< 0.1 µM'),
  ('Cc1[nH]nc2c1[C@](C)(c1ccccc1)C1=C(CC(C)(C)CC1=O)N2 [Compound 123]', 'IC50', '< 0.1 µM');

Form field: reported IC50 of Cc1[nH]nc2c1C(C1CC1)C1=C(CC(C)(C)CC1=O)N2 (stereo not shown) [Compound 43]
1 to 5 µM
